- Test system: Rattus norvegicus
- procedure details: Effective dose was measured by using rat tail flick assay after subcutaneous administration
- Format: functional
- test parameters: sc
ED50 values, listed per item

compound	target	relational operator	ED50, µmol/kg
COc1ccc2c3c1O[C@H]1[C@@H](O)C=C[C@H]4[C@@H](C2)N(C)CC[C@@]341	Rattus norvegicus	=	75
C[C@@H]1CC(=O)CC23CCN(C)C(Cc4ccc(O)cc42)[C@@H]13 (stereo not given in full)	Rattus norvegicus	=	0.93
CCC[C@H]1CC(=O)CC23CCN(C)C(Cc4ccc(OC)cc42)[C@H]13 (stereo not given in full)	Rattus norvegicus	>	28
COc1ccc2c3c1O[C@H]1C(=O)CC[C@H]4[C@@H](C2)N(C)CC[C@]314 [HYDROCODONE]	Rattus norvegicus	=	5.2
CC[C@H]1CC(=O)CC23CCN(C)C(Cc4ccc(O)cc42)[C@H]13 (stereo not given in full)	Rattus norvegicus	=	33
CC[C@H]1CC(=O)CC23CCN(C)C(Cc4ccc(OC)cc42)[C@H]13 (stereo not given in full)	Rattus norvegicus	=	10.6
COc1ccc2c(c1)C13CCN(C)C(C2)[C@@H]1[C@@H](C)CC(=O)C3 (stereo not given in full)	Rattus norvegicus	=	3.57
COc1ccc2c(c1)C13CCN(C)C(C2)[C@H]1CCC(=O)C3 (stereo not given in full)	Rattus norvegicus	>	70
CC[C@@H]1CC(=O)CC23CCN(C)C(Cc4ccc(O)cc42)[C@@H]13 (stereo not given in full)	Rattus norvegicus	=	2.31
C[C@H]1CC(=O)CC23CCN(C)C(Cc4ccc(O)cc42)[C@H]13 (stereo not given in full)	Rattus norvegicus	>	30
CC[C@@H]1CC(=O)CC23CCN(C)C(Cc4ccc(OC)cc42)[C@@H]13 (stereo not given in full)	Rattus norvegicus	>	28
CN1CCC23CC(=O)CC[C@H]2C1Cc1ccc(O)cc13 (stereo not given in full)	Rattus norvegicus	=	70
CCC[C@@H]1CC(=O)CC23CCN(C)C(Cc4ccc(O)cc42)[C@@H]13 (stereo not given in full)	Rattus norvegicus	=	2.46
COc1ccc2c(c1)C13CCN(C)C(C2)[C@@H]1CCC(=O)C3 (stereo not given in full)	Rattus norvegicus	=	2.32
CN1CCC23CC(=O)CC[C@@H]2C1Cc1ccc(O)cc13 (stereo not given in full)	Rattus norvegicus	=	1.33

###

- Tested on: Mus musculus
- procedure details: The effective dose was measured by using mouse writhing assay after the compound administered subcutaneously.
- Format: functional
- test parameters: sc
Group membership follows ED50 per the scheme band 1: < 1 µmol/kg; band 2: ≥ 1 µmol/kg and < 3 µmol/kg; band 3: ≥ 3 µmol/kg

compound	target	assigned label
COc1ccc2c(c1)C13CCN(CC4CC4)C(C2)[C@H]1[C@H](C)CC(=O)C3 (stereo not given in full)	Mus musculus	band 3
CC[C@H]1CC(=O)CC23CCN(C)C(Cc4ccc(OC)cc42)[C@H]13 (stereo not given in full)	Mus musculus	band 3
COc1ccc2c(c1)C13CCN(C)C(C2)[C@@H]1CCC(=O)C3 (stereo not given in full)	Mus musculus	band 2
CC[C@H]1CC(=O)CC23CCN(CC4CC4)C(Cc4ccc(OC)cc42)[C@H]13 (stereo not given in full)	Mus musculus	band 3
CC[C@H]1CC(=O)CC23CCN(C)C(Cc4ccc(O)cc42)[C@H]13 (stereo not given in full)	Mus musculus	band 2
CN1CCC23CC(=O)CC[C@@H]2C1Cc1ccc(O)cc13 (stereo not given in full)	Mus musculus	band 1
C=CCN1CCC23CC(=O)CC(C)[C@H]2C1Cc1ccc(O)cc13 (stereo not given in full)	Mus musculus	band 3
CCC[C@@H]1CC(=O)CC23CCN(C)C(Cc4ccc(OC)cc42)[C@@H]13 (stereo not given in full)	Mus musculus	band 3
CCC[C@H]1CC(=O)CC23CCN(CC4CCC4)C(Cc4ccc(O)cc42)[C@H]13 (stereo not given in full)	Mus musculus	band 2
C[C@H]1CC(=O)CC23CCN(CC4CCC4)C(Cc4ccc(O)cc42)[C@H]13.Cl (stereo not given in full)	Mus musculus	band 1
CCC[C@@H]1CC(=O)CC23CCN(C)C(Cc4ccc(O)cc42)[C@@H]13 (stereo not given in full)	Mus musculus	band 2
CC[C@@H]1CC(=O)CC23CCN(C)C(Cc4ccc(OC)cc42)[C@@H]13 (stereo not given in full)	Mus musculus	band 3
CCC1CCCC23CCN(CC4CCC4)C(Cc4ccc(OC)cc42)[C@H]13 (stereo not given in full)	Mus musculus	band 3
COc1ccc2c(c1)C13CCN(CC4CCC4)C(C2)[C@H]1CCC(=O)C3 (stereo not given in full)	Mus musculus	band 3
COc1ccc2c(c1)C13CCN(CC4CCC4)C(C2)[C@@H]1CCC(=O)C3 (stereo not given in full)	Mus musculus	band 1
O=C1CC[C@@H]2C3Cc4ccc(O)cc4C2(CCN3CC2CCC2)C1 (stereo not given in full)	Mus musculus	band 2
CN1CCC23CC(=O)CC[C@H]2C1Cc1ccc(O)cc13 (stereo not given in full)	Mus musculus	band 1
COc1ccc2c(c1)C13CCN(CC4CCC4)C(C2)[C@H]1[C@H](C)CC(=O)C3 (stereo not given in full)	Mus musculus	band 3
COc1ccc2c(c1)[C@]13CCN(CC4CC4)[C@H](C2)[C@@H]1[C@@H](C)CC(=O)C3	Mus musculus	band 1
COc1ccc2c(c1)C13CCN(C)C(C2)[C@@H]1[C@@H](C)CC(=O)C3 (stereo not given in full)	Mus musculus	band 2

###

- Species: Rattus norvegicus
- procedure details: Ratio of agonist to that of antagonist activity
- Assay type: functional
Ratio values, listed per item

compound	Ratio
C=CCN1CC[C@]23c4c5ccc(O)c4O[C@H]2[C@@H](O)C=C[C@H]3[C@H]1C5 [NALORPHINE]	1.42
COc1ccc2c(c1)C13CCN(CC4CCC4)C(C2)[C@@H]1[C@@H](C)CC(=O)C3.Cl (stereo partly drawn)	0.08
CC(C)=CCN1CC[C@]2(C)c3cc(O)ccc3C[C@H]1[C@H]2C [(+)-PENTAZOCINE]	0.36

###

- Test system: Mus musculus
- procedure details: The effective dose was measured by using mouse writhing assay after the compound administered subcutaneously.
- Assay type: functional
- test parameters: sc
Label True when ED50 is strictly below 6 µmol/kg; at or above that, label False.

compound	assigned label
C[C@H]1[C@H]2Cc3ccc(O)cc3[C@]1(C)CCN2CC1CC1	True
CC[C@@H]1CC(=O)CC23CCN(C)C(Cc4ccc(O)cc42)[C@@H]13 (stereo partly drawn)	True
COc1ccc2c(c1)C13CCN(C)C(C2)[C@H]1[C@H](C)CC(=O)C3 (stereo partly drawn)	True
CCC1CCCC23CCN(CC4CCC4)C(Cc4ccc(O)cc42)[C@H]13 (stereo partly drawn)	False
CCC[C@H]1CC(=O)CC23CCN(CC4CCC4)C(Cc4ccc(OC)cc42)[C@H]13 (stereo partly drawn)	False
C=CCN1CCC23CC(=O)CC(C)[C@H]2C1Cc1ccc(OC)cc13 (stereo partly drawn)	True
O=C1CC[C@H]2C3Cc4ccc(O)cc4C2(CCN3CC2CC2)C1 (stereo partly drawn)	True
CC[C@H]1CC(=O)CC23CCN(CC4CCC4)C(Cc4ccc(OC)cc42)[C@H]13 (stereo partly drawn)	False
COc1ccc2c(c1)C13CCN(C)C(C2)[C@H]1CCC(=O)C3 (stereo partly drawn)	True
Oc1ccc2c(c1)[C@@]13CCCC[C@@]1(O)[C@@H](C2)N(CC1CCC1)CC3	True
O=C1CC[C@H]2C3Cc4ccc(O)cc4C2(CCN3CC2CCC2)C1 (stereo partly drawn)	True
COc1ccc2c(c1)C13CCN(CC4CCC4)C(C2)[C@@H]1[C@@H](C)CC(=O)C3.Cl (stereo partly drawn)	True
COc1ccc2c3c1O[C@H]1[C@@H](O)C=C[C@H]4[C@@H](C2)N(C)CC[C@@]341	False
C[C@H]1CC(=O)C[C@]23CCN(CC4CC4)[C@H](Cc4ccc(O)cc42)[C@H]13	False
C[C@H]1CC(=O)CC23CCN(C)C(Cc4ccc(O)cc42)[C@H]13 (stereo partly drawn)	True
CCC[C@@H]1CC(=O)CC23CCN(CC4CCC4)C(Cc4ccc(O)cc42)[C@@H]13 (stereo partly drawn)	False
CCC[C@H]1CC(=O)CC23CCN(CC4CC4)C(Cc4ccc(OC)cc42)[C@H]13 (stereo partly drawn)	False
COc1ccc2c(c1)C13CCN(CC4CC4)C(C2)[C@@H]1CCC(=O)C3.Cl (stereo partly drawn)	True
C[C@@H]1CC(=O)CC23CCN(C)C(Cc4ccc(O)cc42)[C@@H]13 (stereo partly drawn)	True
CCC[C@H]1CC(=O)CC23CCN(C)C(Cc4ccc(OC)cc42)[C@H]13 (stereo partly drawn)	False
COc1ccc2c(c1)C13CCN(CC4CC4)C(C2)[C@H]1CCC(=O)C3 (stereo partly drawn)	False
CC[C@@H]1CC(=O)CC23CCN(CC4CCC4)C(Cc4ccc(O)cc42)[C@@H]13 (stereo partly drawn)	False

Source of measurements: ChEMBL document CHEMBL1121388
